The measured values listed here are drawn from PubChem BioAssay AID179.

# System: CEM cells HIV-1 protection, formazan growth assay
# assay.text: NCI AIDS Antiviral Assay;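 active means compounds giving half or more protection of infected cells from virus-caused growth loss, again on retest; inactive means the rest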
Could you please pick one outcome from this set? active, inactive

COc1cc2oc(-c3ccc4c(c3)OCO4)c(OC)c(=O)c2c(O)c1OC; inactive
COc1ccc(-c2cc(C)n(C3OC(CO)C(O)C(O)C3O)c(=S)c2C#N)cc1 (centres undefined); inactive
CCOC(=S)SSC(=S)OCC; inactive
Cc1cn(C(CO)OC(CO)CN(O)C2C3CC4CC(C3)CC2C4)c(=O)[nH]c1=O (centres undefined); inactive

Q: Which outcome was assigned to `COc1ccc(/C=C/C(=N\NC(=O)c2ccccc2)c2sc(Nc3ccc([N+](=O)[O-])cc3)nc2C)cc1OC` in this test?
Ans: inactive

Q: Proceed to `Cc1cc(O)c2c(oc3cc(O)c4c(c32)COC4=O)c1C(=O)O`
Ans: inactive

Q: Proceed to `CCNc1cc2c(cc1O)CC[C@@H]1[C@@H]2CC[C@]2(C)[C@@H](O)CC[C@@H]12`
Ans: inactive

Q: Proceed to Cc1cccc(C)c1N1C(=O)C2c3[nH]c4ccccc4c3C3CCC(C(C)(C)C)CC3C2C1=O (centres undefined)
Ans: inactive

Q: Proceed to CC(C)(C)NC(=O)C12C3C4C1C1C2C3C41I (centres undefined)
Ans: inactive

Q: Proceed to `NS(=O)(=O)c1ccc(NC(=O)c2cccc3cc4ccccc4nc23)cc1`
Ans: inactive

Q: Proceed to `C(=N\Nc1ccc2ccccc2n1)/c1ccccn1.CC(=O)[O-].CC(=O)[O-].[Zn+2]`
Ans: inactive

Q: Proceed to `CC(=NNC(=S)Nc1ccc(C)cc1)c1cccc(C(C)=NNC(=S)Nc2ccc(C)cc2)n1`
Ans: inactive

Q: Proceed to `O=C(/C=C1/NC(=O)CS1)Nc1ccccc1`
Ans: inactive
